test-system: β-amyloid (1-40) fibrils (Homo sapiens)
Construct: β-amyloid (1-40) (Biosource, Camarillo, Calif.) fibrils were prepared
Sequence (P05067 672-711 limits assumed): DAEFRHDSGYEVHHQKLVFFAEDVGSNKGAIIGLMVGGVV
test-name: In vitro competition assay with [18F]FDDNP on synthetic β-amyloid (1-40) fibrils (vacuum filtration)
reported-conditions: synthetic β-amyloid (1-40) fibrils, 1 h, PBS pH 7.4; ±SD; read-out: Ki (decrease in the binding of [18F]FDDNP)
value-kind: Ki (µM)

I = CC(C)Cc1ccc([C@@H](C)C(=O)O)cc1 [(R)-ibuprofen]
II = CC(C)Cc1ccc([C@H](C)C(=O)O)cc1 [(S)-ibuprofen]
III = COc1ccc2cc([C@H](C)C(=O)O)ccc2c1 [(S)-naproxen]
IN: Order the entries above by descending Ki. Answer with the labels in sequence, matching the requested order.
OUT: I, II, III
